# Tested on: MDA-MB-231 breast
# PROCEDURE DETAILS: NCI-60 one-dose screen, 48 h (100 = growth as untreated, 0 = no growth, -100 = all killed)
# EXPERIMENTAL CONTEXT: 10 µM unless noted
Compounds without any hit were thinned out: in the full panel of roughly 83,000, 20% have a hit.
QUANTITY NAME: growth (%)
Provide the reading as a plain figure in %.

- COMPOUND: "COCCNC1=C(Cl)C(=O)c2ccccc2C1=O"
  TARGET UNDER TEST: "MDA-MB-231 breast"
  QUANTITATIVE READOUT: 99.6
- COMPOUND: "Cc1cc(C)c(NC(=O)c2sc3nc4c(cc3c2N)CCCC4)c(C)c1"
  TARGET UNDER TEST: "MDA-MB-231 breast"
  QUANTITATIVE READOUT: 71.8

Query: Param request: growth | system MDA-MB-231 breast | item Fc1ccc2c(c1)c(-c1nc(-c3c[nH]c4ncccc34)cs1)cn2CCCN1CCCCC1
Result: 55.3

Query: Given C[C@H]1[C@H]2C3=CC[C@@H]4[C@@]5(C)C/C(=C/c6ccco6)C(=O)C(C)(C)[C@@H]5CC[C@@]4(C)[C@]3(C)CC[C@@]2(C(=O)N2CCOCC2)CC[C@@H]1C , report its growth on MDA-MB-231 breast.
Result: 90.5

Query: Give MDA-MB-231 breast growth for the following compound: Cc1csc(Nc2nc(-c3cccc(Br)c3)nc(C(Cl)(Cl)Cl)n2)n1
Result: 15.5

Query: Give reported growth for N#Cc1cnc2cc(OC[C@@H](O)CO)c(NC(=O)C3CCCC3)cc2c1Nc1ccc(OCc2cccc(F)c2)c(Cl)c1 (MDA-MB-231 breast)
Result: -58.5

====

# Tested on: RPMI-8226 leukemia
# PROCEDURE DETAILS: NCI-60 one-dose screen, 48 h (100 = growth as untreated, 0 = no growth, -100 = all killed)
# EXPERIMENTAL CONTEXT: 10 µM unless noted
# Description: Growth inhibition of the RPMI-8226 human tumor cell line is measured as a screen for anti-cancer activity. Cells are grown in 96 well plates and exposed to the test compound for 48 hours. Compounds are tested at a single concentration, which is 10^-5 M for most compounds. The reported endpoint is percent growth (GI% or GIPRCNT), where numbers from 0 - 100% represent growth inhibition, and numbers from -100% - 0 represent cell death. For example, a value of 40 represents 60% growth inhibition. […]
About 83,000 compounds went through this panel and 20% of them were active in at least one assay; those are over-represented in the sample as a whole.
QUANTITY NAME: growth (%)
# output: bare number, implied unit %

Known growth results, listed for orientation:
- COMPOUND: "COc1ccc(-n2c(/C=C/c3ccc(O)c(OC)c3)cc(/C=C/c3ccc(O)c(OC)c3)nc2=O)cc1"
  growth, %: 21.4
- COMPOUND: "CCCCCCCC(=O)SCC/C=C/[C@@H]1CC(=O)NCc2cccc(n2)CN(Cc2ccc3ccccc3c2)CC(=O)N[C@@H](C(C)C)C(=O)O1"
  growth, %: 32.6
- COMPOUND: "O=C1C(Cl)=C(Nc2ccc(S(=O)(=O)c3ccc(NC4=C(Cl)C(=O)c5ccccc5C4=O)cc3)cc2)C(=O)c2ccccc21"
  growth, %: 5.2

Query: Determine from records and report growth for Nc1c(C(=O)Nc2cccc3ccccc23)sc2nc3c(cc12)CCCC3
Result: 28.3

Query: Item N#CC1c2ccccc2-c2ccccc2N1C(=O)c1ccccc1 (stereo not given) : provide growth
Result: 26.4

Query: Tell me measured growth for CN(C)c1ccc(C(=O)c2ccc(N(C)C)c(N)c2)cc1N please.
Result: 60.4

====

# Tested on: HS 578T breast
# PROCEDURE DETAILS: NCI-60 one-dose screen, 48 h (100 = growth as untreated, 0 = no growth, -100 = all killed)
# EXPERIMENTAL CONTEXT: 10 µM unless noted
The panel holds about 83,000 compounds, 20% with a hit somewhere; the sample as a whole holds those more often. Calls of active or inactive are those of the source. The calls were made as follows: active = growth percent below 10; inactive = the rest.
QUANTITY NAME: growth

Example molecules with recorded growth:
- MOLECULE: "Cc1ccsc1-c1ccc2c(c1)COC2(CCCN(C)C)c1ccc(F)cc1 (stereo unspecified)"
  RESULT: "49% (inactive)"
- MOLECULE: "CCc1ccccc1NC(=O)c1sc2nc3c(cc2c1N)CCCC3"
  RESULT: "29.9% (inactive)"
- MOLECULE: "CCCCC[C@H]1C/C=C2/C(=O)C(Cl)=C[C@@H]2C/C=C\\CCCC(=O)O1"
  RESULT: "29.7% (inactive)"

Query: Supply growth value. Item: Cc1ccc2c(c1)c(-c1nc(-c3c[nH]c4ncccc34)cs1)cn2C
Result: 109% (inactive)

Query: Return growth for the following molecule: Cn1c(=O)c2c(nc(N3CCCC3)n2C)n(C)c1=O
Result: 105% (inactive)

Query: Report growth, nothing else, for this molecule: C=C(C)[C@@H]1CC[C@]2(C=O)CC[C@]3(C)[C@H](CC[C@@H]4[C@@]5(C)C/C(=C/c6cccnc6)C(=O)C(C)(C)[C@@H]5CC[C@]43C)[C@@H]12
Result: 87.4% (inactive)

Query: Could you please provide reported growth for Cc1ccc(S(=O)(=O)Nc2ccc(-c3cc(-c4cccc(F)c4)c(C#N)c(N)n3)cc2)cc1 ? Thanks!
Result: 31.4% (inactive)

Query: Fill in growth for record Nc1c(C(=O)Nc2c(Cl)cccc2Cl)sc2nc3c(cc12)C(=O)CCC3
Result: 13.4% (inactive)

Query: Annotate the molecule C/C(Cc1ccc(Cl)cc1)=C(/c1ccc(Cl)cc1)c1ccc(OCCN2CCCC2)cc1 with its measured growth.
Result: 79.1% (inactive)

Query: Report growth, nothing else, for this molecule: COC(=O)CNc1nc(N(C)O)nc(N(C)O)n1
Result: 77.8% (inactive)

Query: Hello, please tell me recorded growth for this one: O=S(=O)(NCCNc1cc(-c2cn(-c3ccccc3)nc2-c2cccc(O)c2)ccn1)c1ccc(F)cc1
Result: 15.7% (inactive)

Query: Using the record for Cc1cc2nc3c4cc(O)ccc4n(CCN(C)C)c3nc2cc1C , state its measured growth.
Result: 14.1% (inactive)

Query: Give the measured growth for COc1c(N)c2c(c([N+](=O)[O-])c1OC)C(=O)OC2
Result: 109% (inactive)

====

# System: IGROV1 ovarian
# PROCEDURE DETAILS: NCI-60 one-dose screen, 48 h (100 = growth as untreated, 0 = no growth, -100 = all killed)
# EXPERIMENTAL CONTEXT: 10 µM unless noted
This is part of a sample that, as a whole, favours compounds with a hit. Of some 83,000 tested, about 20% had one in any assay.
Label t for high-side growth (at or above 40%) and f for low-side growth (below it).

Answered examples (2):
- COMPOUND: "COc1ccc2c(c1)C/C(=C\\c1cc(-c3ccc4c(c3)OCO4)n[nH]1)C2=O"
  CLASSIFICATION: "t"
- COMPOUND: "c1csc(-c2nc(-c3cc4ccccc4c(N4CCOCC4)n3)cs2)c1"
  CLASSIFICATION: "t"

Query: Please tell me: is the compound CC(CNc1nc(Nc2ccc(Cl)c(Cl)c2)nc(C(Cl)(Cl)Cl)n1)N(C)C (stereo not given) at or over 40% in terms of growth?
Result: f

Query: Does O=S(=O)(NCCNc1cc(-c2cn(-c3ccccc3)nc2-c2cccc(O)c2)ccn1)c1ccc(Cl)cc1 have a reported growth of at least 40%?
Result: t

Query: Confirm if growth reported for the compound O=c1c2sc3ncc(Br)cc3c2ncn1-c1cccc(Cl)c1 is 40% or above.
Result: t

====

# System: NCI-H23 lung
# PROCEDURE DETAILS: NCI-60 one-dose screen, 48 h
# EXPERIMENTAL CONTEXT: 10 µM unless noted
About 83,000 compounds went through this panel and 20% of them were active in at least one assay; those are over-represented in the sample as a whole. The source made the active and inactive calls. The calls were made as follows: active = growth percent below 10; inactive = the rest.
Give one outcome, nothing more. List: active, inactive

# count of solved cases: 6
- COMPOUND: "CNC(=O)c1cc(Oc2ccc3nc(NC(=O)Nc4ccc(Cl)cc4)sc3c2)ccn1"
  CLASSIFICATION: "inactive"
- COMPOUND: "CC(C)(C)n1cc(-c2ccnc(NCCCNS(=O)(=O)c3ccc(Cl)cc3)c2)c(-c2cccc(F)c2)n1"
  CLASSIFICATION: "inactive"
- COMPOUND: "Cn1cccc1/C=C1/SC(=S)N(CCc2ccc(O)cc2)C1=O"
  CLASSIFICATION: "inactive"
- COMPOUND: "O=C1/C(=C\\c2ccc(Br)o2)SC(=S)N1CCc1ccc(O)cc1"
  CLASSIFICATION: "inactive"
- COMPOUND: "CCc1ccc(-c2ccc(Nc3ccccc3)nn2)cc1S(N)(=O)=O"
  CLASSIFICATION: "inactive"
- COMPOUND: "O=C1/C(=C\\C(Cl)=C/c2ccc([N+](=O)[O-])cc2)SC(=S)N1CCc1ccc(O)cc1"
  CLASSIFICATION: "active"

Query: Per the assay record, what outcome was assigned to Clc1ccc(Cn2cc(-c3nc4ccc(Br)nc4n3Cc3ccc(Cl)cc3)c3cccnc32)cc1 ?
Result: inactive

Query: Recorded test call requested for COc1ccc(-n2c(/C=C/c3ccc(O)c(OC)c3)cc(/C=C/c3ccc(O)c(OC)c3)nc2=O)cc1
Result: inactive

Query: Dear colleague, could you share the recorded outcome for Cc1oc(-c2ccccc2Cl)cc1C(=O)Nc1ccc(S(N)(=O)=O)cc1 when you have a moment?
Result: inactive
